Source listed as patent US20220220100A1.

Test: UV/Vis absorbance at 400 nm and Yellowness Index of the ring-open isomer
Format: physicochemical
Conditions: 2×10^−5 M solution, 1 cm pathlength cuvette
So basically: is Abs @ 400 nm, RO (Absorption of ring-open isomer at 400 nm) under 0.1? Then condition met. Not under? Then condition not met.

Worked examples, 2 molecules total:
COc1ccc2c(C3=C(c4cc(-c5ccc(C(C)(C)C)s5)sc4-c4ccc(C(C)(C)C)s4)C(F)(F)C(F)(F)C3(F)F)c(-c3ccc(C(C)(C)C)cc3)oc2c1: condition met
COc1cc2oc(-c3ccc(C(C)(C)C)cc3)c(C3=C(c4cc(-c5cccs5)sc4-c4cccs4)C(F)(F)C(F)(F)C3(F)F)c2cc1OC [Chromophore S193]: condition met

# TODO verify Abs @ 400 nm, RO (Absorption of ring-open isomer at 400 nm) < 0.1 strictly for this molecule: CCOC(=O)CCCOc1cc2oc(-c3ccc(C(C)(C)C)cc3)c(C3=C(c4cc(-c5ccc(C(C)(C)C)s5)sc4-c4ccc(C(C)(C)C)s4)C(F)(F)C(F)(F)C3(F)F)c2cc1OCCCC(=O)OCC [Chromophore S374]
condition not met

* * *

Assay: Photostability: xenon arc weathering of chromophore solutions, LCMS analysis
Type: physicochemical
Details: 10 wt % in Rhodiasolv IRIS; xenon arc, 82° C. bp; linearly interpolated to 0.5 MJ/m2 @ 340 nm
Description: Photostability (resistance to light-induced degradation) may be measured by the amount of time required for the compound, or a material comprising the compound, to degrade to a certain point under light exposure. The light exposure may be constant, or cyclic. The light transmittance or absorbance of the compound, or material comprising the compound, may be determined at both a light state and dark state prior to testing, to determine a contrast ratio. […]
outcome measure: Ketone (%)

Guide cases for Ketone (%), answers given:
CCOC(=O)CCCOc1cc2oc(-c3ccc(C(C)(C)C)cc3)c(C3=C(c4cc(-c5cc(C(C)(C)C)cs5)sc4-c4cc(C(C)(C)C)cs4)C(F)(F)C(F)(F)C3(F)F)c2cc1OCCCC(=O)OCC: 0.0%
CCOC(=O)CCCOc1cc2oc(-c3ccc(C(C)(C)C)cc3)c(C3=C(c4cc(-c5cc6c(s5)C(C)(C)CCC6(C)C)sc4-c4cc5c(s4)C(C)(C)CCC5(C)C)C(F)(F)C(F)(F)C3(F)F)c2cc1OCCCC(=O)OCC: 0.0%
CCOC(=O)CCCOc1cc2oc(-c3ccc(C(C)(C)C)cc3)c(C3=C(c4cc(-c5ccc(C(C)(C)C)s5)sc4-c4ccc(C(C)(C)C)s4)C(F)(F)C(F)(F)C3(F)F)c2cc1OCCCC(=O)OCC: 0.0%
COCCCOc1cc2oc(-c3ccc(C(C)(C)C)cc3)c(C3=C(c4cc(-c5cc(C(C)(C)C)cs5)sc4-c4cc(C(C)(C)C)cs4)C(F)(F)C(F)(F)C3(F)F)c2cc1OCCCOC: 0.0%
COCCOc1cc2oc(-c3ccc(C(C)(C)C)cc3)c(C3=C(c4cc(-c5ccc(C(C)(C)C)s5)sc4-c4ccc(C(C)(C)C)s4)C(F)(F)C(F)(F)C3(F)F)c2cc1OCCOC: 0.6%
CCOC(=O)CCCOc1cc2oc(-c3ccc(C(C)(C)C)cc3)c(C3=C(c4cc(-c5ccc(C(C)(C)C)s5)sc4-c4sc(C(C)(C)C)cc4C)C(F)(F)C(F)(F)C3(F)F)c2cc1OCCCC(=O)OCC: 0.0%
CCOC(=O)CCCOc1cc2oc(-c3ccc(C(C)(C)C)cc3)c(C3=C(c4cc(-c5sc(C(C)(C)C)cc5C)sc4-c4sc(C(C)(C)C)cc4C)C(F)(F)C(F)(F)C3(F)F)c2cc1OCCCC(=O)OCC: 0.0%
COCCCOc1cc2oc(-c3ccc(C(C)(C)C)cc3)c(C3=C(c4cc(-c5cc6c(s5)C(C)(C)CCC6(C)C)sc4-c4cc5c(s4)C(C)(C)CCC5(C)C)C(F)(F)C(F)(F)C3(F)F)c2cc1OCCCOC: 0.2%

Hi team, please reply with Ketone (%) for each item in this list.
1. CC(=O)Oc1cc2oc(-c3ccc(C(C)(C)C)cc3)c(C3=C(c4cc(-c5ccc(C(C)(C)C)s5)sc4-c4ccc(C(C)(C)C)s4)C(F)(F)C(F)(F)C3(F)F)c2cc1OC(C)=O
2. CC(C)(C)c1ccc(-c2oc3cc(OCCN4C(=O)CCC4=O)c(OCCN4C(=O)CCC4=O)cc3c2C2=C(c3cc(-c4cc(C(C)(C)C)cs4)sc3-c3cc(C(C)(C)C)cs3)C(F)(F)C(F)(F)C2(F)F)cc1
3. CC(C)(C)c1ccc(-c2oc3cc(OCCN4CCOC4=O)c(OCCN4CCOC4=O)cc3c2C2=C(c3cc(-c4cc5c(s4)C(C)(C)CCC5(C)C)sc3-c3cc4c(s3)C(C)(C)CCC4(C)C)C(F)(F)C(F)(F)C2(F)F)cc1

["1.1%", "0.0%", "0.0%"]
